TEST_SYSTEM: human sphingosine-1-phosphate receptor 1 (S1P1) (Homo sapiens)
ASSAY_REMARKS: β-Arrestin2 recruitment assay (PathHunter), S1P1 CHO-K1 cells
Type: cell-based
CONDITIONS: β-arrestin2 recruitment, S1P1; read-out: hS1P1 B-arrestin2 pEC50 (converted)
Protocol: Stable clonal Chinese hamster ovary K1 (CHO-K1) cells co-expressing EA-β-arrestin2 and the human sphingosine-1-phosphate receptor 1 (NM_001400, S1P1) with a C-terminal Prolink™ tag were purchased from DiscoverX corporation (Cat #: 93-0207C2). […] Agonist-promoted β-arrestin2 recruitment to the sphingosine-1-phosphate 1 receptor was determined using the β-arrestin PathHunter® Detection kit (DiscoverX Corporation, Cat #: 93-0001). […]
Sequence (P21453 whole entry): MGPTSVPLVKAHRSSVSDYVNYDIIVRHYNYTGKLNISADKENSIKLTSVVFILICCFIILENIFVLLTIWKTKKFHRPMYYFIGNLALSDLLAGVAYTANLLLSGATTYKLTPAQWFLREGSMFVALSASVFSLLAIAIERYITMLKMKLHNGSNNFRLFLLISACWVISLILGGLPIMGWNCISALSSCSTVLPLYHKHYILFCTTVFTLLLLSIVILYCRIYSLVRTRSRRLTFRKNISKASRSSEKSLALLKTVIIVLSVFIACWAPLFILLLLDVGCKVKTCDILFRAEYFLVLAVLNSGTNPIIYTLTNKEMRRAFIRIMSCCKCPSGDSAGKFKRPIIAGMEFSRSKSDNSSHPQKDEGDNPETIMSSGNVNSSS
Sequence (P32121 whole entry partner): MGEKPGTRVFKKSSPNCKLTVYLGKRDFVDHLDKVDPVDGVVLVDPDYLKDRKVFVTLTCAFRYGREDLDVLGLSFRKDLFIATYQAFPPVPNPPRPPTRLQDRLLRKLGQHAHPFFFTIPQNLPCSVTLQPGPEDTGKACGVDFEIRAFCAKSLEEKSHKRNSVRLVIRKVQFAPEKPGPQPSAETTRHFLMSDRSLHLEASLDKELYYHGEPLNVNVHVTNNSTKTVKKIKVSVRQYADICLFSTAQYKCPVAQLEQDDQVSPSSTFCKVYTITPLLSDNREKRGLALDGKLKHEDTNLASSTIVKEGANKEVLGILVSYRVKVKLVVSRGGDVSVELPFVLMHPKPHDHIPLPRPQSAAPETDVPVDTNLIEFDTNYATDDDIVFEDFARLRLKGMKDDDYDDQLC
MEASURED_PARAMETER: EC50

Consider the worked cases shown below.
CCC1(CC)C/C(=N/O)c2cc(-c3nc(-c4cccnc4)no3)ccc2O1: > 10 µM
CC(C)Nc1ccc(-c2ncc(-c3ccc4[nH]c(=O)[nH]c4c3)cn2)cc1C#N: < 10 µM
Cc1nc2cc(-c3nnc(-c4ccc(NC(C)C)c(C#N)c4)o3)ccc2[nH]1: < 10 µM
COc1ccccc1-c1csc(-c2cnc3c(ccn3C(C)C)c2)n1: > 10 µM
CC(C)n1nnc2cc(-c3nc(-c4sccc4Cl)co3)ccc21: < 10 µM
CC(C)Oc1ccc(-c2ncc(-c3ccc4c(c3)nnn4C(C)C)cn2)cc1C#N: < 10 µM
CCC1(CC)CC(=O)c2cc(-c3nc(-c4ccc5cnccc5c4)no3)ccc2O1: > 10 µM

# next molecule below
q: Lab note: need EC50 with human sphingosine-1-phosphate receptor 1 (S1P1) (Homo sapiens) for entry "CC(C)Nc1ccc(-c2nnc(-c3ccc4c(c3)ncn4CCO)o2)cc1C#N" , please look it up.
a: > 10 µM

* * *

# key: entry, value: EC50
TEST_SYSTEM: human sphingosine-1-phosphate receptor 1 (S1P1) (Homo sapiens)
ASSAY_REMARKS: Inhibition of cAMP production (HTRF cAMP HiRange), S1P1 CHO-K1 cells
Type: cell-based
CONDITIONS: inhibition of cAMP production; potency; read-out: hS1P1 CAMP pEC50 (converted)
Sequence (P21453 whole entry): as the sequence (P21453 whole entry) above

In the examples that follow, each entry is paired with its recorded EC50.
Cc1ccccc1-c1noc(-c2ccc3c(c2)nnn3C2CCCCC2)n1 [Compound 245]: > 316 nM
CCC1(CC)CC(=O)c2cc(-c3nnc(-c4ccccc4OC)s3)ccc2O1 [Compound 178]: > 316 nM

q: I have this molecule here, COc1cnc(-c2nc(-c3ccc4c(c3)nnn4C(C)C)no2)cn1 [Compound 51] , and I need its recorded EC50.
a: > 316 nM

q: Find the recorded EC50 belonging to CC(C)n1nnc2cc(-c3nc(-c4ccccc4Br)co3)ccc21 [Compound 183] and report it.
a: < 316 nM

q: For the molecule COc1ccccc1-c1noc(-c2ccc3[nH]cnc3c2)n1 [Compound 369] , what EC50 is on record?
a: > 316 nM

q: I'd like to know its EC50. The molecule in question is CC(C)n1ncc2cc(-c3nc(-c4ccccc4Cl)no3)ccc21 [Compound 330]
a: < 316 nM

q: May I ask what EC50 has been recorded for CC(C)n1nnc2cc(-c3noc(-c4ccccc4C#N)n3)ccc21 [Compound 279] ?
a: > 316 nM

q: Given the entry CC(C)n1nnc2cc(-c3nc(-c4ccc5ccccc5n4)no3)ccc21 [Compound 168] , report its measured EC50.
a: > 316 nM

q: Please look up its EC50: CCC1(CC)CC(=O)c2cc(-c3nc(-c4ccncc4OC)no3)ccc2O1 [Compound 212]
a: < 316 nM

q: Item under review: CCC1(CC)CC(=O)c2cc(-c3nnc(-c4ccccc4OC)o3)ccc2O1 [Compound 300] . Reported EC50?
a: > 316 nM

q: What does the record list as EC50 for CC(C)n1nnc2cc(-c3noc(-c4ccc(COc5ccccc5)cc4)n3)ccc21 [Compound 131] ?
a: > 316 nM

q: Suppose we examine the molecule Cc1cnc(-c2nc(-c3ccc4c(c3)nnn4C(C)C)no2)cn1 [Compound 234] ; what EC50 value has been reported?
a: > 316 nM

q: Endpoint output: EC50 of CC(F)(F)CNc1ccc(-c2nnc(-c3ccc4[nH]ncc4c3)o2)cc1C#N [Compound 355] . Value?
a: < 316 nM

q: # EC50 lookup, item CCC1(CC)CC(=O)c2cc(-c3nc(-c4ccc(C)cc4)no3)ccc2O1 [Compound 269]
a: > 316 nM

q: Bench note: what EC50 did COc1ccccc1-c1nc(-c2ccc3c(c2)nnn3C2CCCC2)no1 [Compound 120] show?
a: < 316 nM

q: Recorded EC50 of COc1ccc(-c2noc(-c3ccc4c(c3)nnn4C3CCCC3)n2)cc1C(F)(F)F [Compound 197] , please.
a: > 316 nM

q: Name the reported EC50 value associated with the molecule COc1ccc(-c2nc(-c3ccc4c(c3)nnn4C3CCCC3)no2)cc1OC [Compound 275]
a: > 316 nM

* * *

The entries below come with measured EC50 values attached.
TEST_SYSTEM: human sphingosine-1-phosphate receptor 1 (S1P1) (Homo sapiens, UniProt P21453)
ASSAY_REMARKS: Inhibition of cAMP production (HTRF cAMP HiRange), S1P1 CHO-K1 cells
Assay type: cell-based
CONDITIONS: inhibition of cAMP production; potency; read-out: hS1P1 CAMP pEC50 (converted)
Procedure: Stable clonal Chinese hamster ovary K1 (CHO-K1) cells co-expressing EA-β-arrestin2 and the human sphingosine-1-phosphate receptor 1 (NM_001400, S1P1) with a C-terminal Prolink™ tag were purchased from DiscoverX corporation (Cat #: 93-0207C2). […] Agonist-promoted G-protein responses were determined by measuring changes in intracellular cAMP using the HTRF® cAMP HiRange kit (CisBio, Cat #: 62AM6PEJ) based on time-resolved fluorescence resonance energy transfer (TR-FRET) technology. […]

COc1cccnc1-c1noc(-c2ccc3c(c2)nnn3C2CCCC2)n1: > 316 nM
COc1cccc(-c2noc(-c3ccc4c(c3)nnn4C(C)C)n2)n1: > 316 nM
COc1ccc(-c2nc(-c3ccc4c(c3)nnn4C(C)C)no2)cc1: > 316 nM
CC(C)Oc1ccccc1-c1noc(-c2ccc3c(cnn3C(C)C)c2)n1: > 316 nM
c1cc(-c2noc(-c3ccc4c(c3)nnn4C3CC3)n2)ccn1: > 316 nM

q: What value of EC50 has been recorded for this entry: "N#Cc1cc(-c2nnc(-c3ccc4[nH]ncc4c3)o2)ccc1NCCF"
a: < 316 nM

* * *

Here the recorded Emax is given for each entry.
TEST_SYSTEM: human sphingosine-1-phosphate receptor 1 (S1P1) (Homo sapiens, UniProt P21453)
ASSAY_REMARKS: β-Arrestin2 recruitment assay (PathHunter), S1P1 CHO-K1 cells
Format: cell-based
CONDITIONS: CHO-K1; efficacy normalized to maximum efficacy of fingolimod; read-out: hS1P1 B-arrestin2 SPAN

Below, 4 molecules whose answers are already recorded.
COc1cccc(-c2csc(-c3ccc4c(ccn4C(C)C)c3)n2)c1: < 75%
COc1ccc(-c2nc(-c3ccc4c(ccn4C(C)C)c3)no2)cc1: < 75%
CCC1(CC)CC(=O)c2cc(-c3nc(-c4cccnc4F)no3)ccc2O1: > 75%
COc1ccccc1-c1cnc(-c2ccc3c(c2)nnn3C(C)C)nc1: > 75%

q: Any idea what its Emax is? The molecule is "Cc1ccncc1-c1noc(-c2ccc3c(c2)NC(=O)CN3)n1"
a: < 75%

* * *

Emax for assorted compounds
TEST_SYSTEM: human sphingosine-1-phosphate receptor 1 (S1P1) (Homo sapiens, UniProt P21453)
ASSAY_REMARKS: Inhibition of cAMP production (HTRF cAMP HiRange), S1P1 CHO-K1 cells
Format: cell-based
CONDITIONS: CHO-K1; efficacy normalized to maximum efficacy of fingolimod; read-out: hS1P1 CAMP SPAN
Experimental: Stable clonal Chinese hamster ovary K1 (CHO-K1) cells co-expressing EA-β-arrestin2 and the human sphingosine-1-phosphate receptor 1 (NM_001400, S1P1) with a C-terminal Prolink™ tag were purchased from DiscoverX corporation (Cat #: 93-0207C2). […] Agonist-promoted G-protein responses were determined by measuring changes in intracellular cAMP using the HTRF® cAMP HiRange kit (CisBio, Cat #: 62AM6PEJ) based on time-resolved fluorescence resonance energy transfer (TR-FRET) technology. […]

O=C1c2cc(-c3nc(-c4ccncc4)no3)ccc2OC(CO)(CO)C1Br (stereo not drawn): > 75%
Cc1cccc2nc(-c3ccc4c(c3)nnn4CC(C)C)oc12: > 75%
CC(C)n1ccc2cc(-c3noc(-c4ccncc4F)n3)ccc21: > 75%

q: # Emax lookup, item "CCC1(CC)CC(=O)c2cc(-c3nc(-c4ccn[nH]4)no3)ccc2O1"
a: > 75%

q: Please report the recorded Emax for "COc1ccccc1-c1noc(-c2ccc3c(c2)ncn3C(C)C)n1" .
a: > 75%

q: Given "CC(C)Nc1ccc(-c2nnc(-c3ccc4c(c3)C(=O)NCC4)o2)cc1C#N" , state its recorded Emax.
a: < 75%

q: Look up Emax for this compound: "CCC1(CC)CC(=O)c2cc(-c3nc(-c4ccoc4)no3)ccc2O1"
a: > 75%

q: Look up Emax: "CCC1(CC)CC(=O)c2cc(-c3nc(-c4ccc[nH]4)no3)ccc2O1"
a: < 75%

q: For the compound "CCC1(CC)CC(=O)c2cc(-c3nc(-c4ccc5ncccc5c4)no3)ccc2O1" , what Emax is on record?
a: < 75%

q: Which Emax is reported for this compound? "Cc1ccccc1-c1nsc(-c2ccc3c(ccn3C(C)C)c2)n1"
a: < 75%

q: Can you look up the measured Emax of "Cc1ccncc1-c1noc(-c2ccc3c(c2)nnn3C2CCC2)n1" for me?
a: > 75%

q: Report Emax for "CC(C)Nc1ccc(-c2nnc(-c3ccc4[nH]c(=O)oc4c3)o2)cc1C#N" please.
a: > 75%

q: What value of Emax has been recorded for this entry: "CC(C)n1ccc2cc(-c3noc(-c4ccccn4)n3)ccc21"
a: < 75%

q: Item "Cc1ccc2nc(-c3ccc4c(c3)nnn4CC(C)C)oc2c1" has what recorded Emax?
a: > 75%

q: Dear colleague, I am looking for the recorded Emax of the following compound: "N#Cc1cc(-c2nnc(-c3cccc4[nH]cnc34)o2)ccc1NCC(F)F"
a: > 75%

q: Consider the compound "CCC1(CC)CC(=O)c2cc(-c3noc(-c4cccnc4)n3)ccc2O1" and give its measured Emax.
a: > 75%

q: Look up Emax: "CCC1(CC)CC(=O)c2cc(-c3nc(-c4cccc(OC)n4)no3)ccc2O1"
a: > 75%

q: Please report the recorded Emax for "CC(C)Nc1ccc(-c2nc(-c3ccc4oc(=O)[nH]c4c3)no2)cc1C#N" .
a: > 75%
